// provenance: PubChem BioAssay AID1159580

assay: chemical genetic growth profiling, strain panel (AID 1159580);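 also: tested at 20 µM; growth read once vehicle control cultures reached saturation at 30 °C; 1 = growth at the plate median or of vehicle wells; lower values mean less growth of the strain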; conditions: S. cerevisiae deletion strains, growth OD, locus YDL035C, strain GPR1, hits give low values
Hit rate of the full screen: of about 5,500 compounds, about 2,000 (36%) were called active. Roughly 18% stayed inconclusive and do not appear here. This is one part of the list.
The entries below are paired with their reported normalized growth.
Write no unit; give the number alone.

The examples below pair each entry with its known result.
Need normalized growth of CC(C)=CCOc1c2occc2cc2ccc(=O)oc12 , thanks.
0.857

Which normalized growth value is on record for Cn1c([N+](=O)[O-])cnc1COC(N)=O ?
1.02

Please give the measured normalized growth for this compound: C[N+]1(C)C2CC[C@H]1CC(OC(=O)C(O)c1ccccc1)C2 (stereo not given in full)
0.993

// lookup normalized growth for COc1ccc2ccc(=O)oc2c1CC=C(C)C
0.794

Param item = COc1c2c(cc3occ(-c4ccc5c(c4)OCO5)c(=O)c13)OC(C)(C)C=C2 ; retrieve measured normalized growth.
0.95

What measured normalized growth goes with COc1cc(O)c(C)c(O)c1 ?
1.01

Suppose we examine the compound COc1c2occc2cc2ccc(=O)oc12 ; what normalized growth value has been reported?
0.956

Which normalized growth reading was recorded for the compound COC(=O)C1=CO[C@@H](O[C@@H]2O[C@H](CO)[C@@H](O)[C@H](O)[C@H]2O)[C@@H]2[C@@H](C)[C@@H](O)C[C@H]12 ?
1.02

Sample c1coc(CNc2ncnc3nc[nH]c23)c1 — what was its normalized growth?
1.01

Field request: normalized growth | item: C=C(C)c1cc2cc(C(C)=O)c(O)cc2o1
0.93

More entries:
What does the record list as normalized growth for O=c1c(-c2ccc3c(c2)OCO3)coc2cc(O)ccc12 ?
1

Quick one: normalized growth for COc1cc2ccc(=O)oc2cc1O ?
0.97

====

Each entry below lists one item and its recorded normalized growth value.
test: chemical genetic growth profiling, strain panel (AID 1159580); settings: S. cerevisiae deletion strains, growth OD, locus YNL222W, strain SSU72, hits give low values
Out of some 5,500 compounds screened, about 2,000 (36%) were called active. Roughly 18% stayed inconclusive and do not appear here. The list shows a part of the results.
API doc: respond with a numeric literal and nothing else, no unit.

If you can, please state the reported normalized growth value of N#Cc1c(N)sc2c1CCc1ccccc1-2 .
0.897

Further cases:
Fill in the blank: the reported normalized growth of O=S(=O)(Nc1cc(-c2cccs2)nn1-c1ccc(I)cc1)c1cccc(F)c1 is ____.
0.956

Consider the molecule Cc1nc([N+](=O)[O-])cn1CC(=O)c1ccc(Cl)cc1 and give its measured normalized growth.
0.977

Tell me the measured normalized growth of CCOC(=O)C(NC(C)=O)(Nc1ccc(F)c(Cl)c1)C(F)(F)F (configuration not stated) , please.
0.989

====

Entries and their normalized growth values follow.
assay: chemical genetic growth profiling, strain panel (AID 1159580);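 also: tested at 20 µM; growth read once vehicle control cultures reached saturation at 30 °C; 1 = growth at the plate median or of vehicle wells; lower values mean less growth of the strain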; conditions: S. cerevisiae deletion strains, growth OD, locus YJL187C, strain SWE1, hits give low values
The campaign covered roughly 5,500 compounds. About 2,000 (36%) were called active. Not shown: some 18% with an inconclusive outcome. The list shows a part of the results.
Give the figure only, with no unit attached.

Sample records with normalized growth:
I have this compound here, N#C/C(=N/Nc1ccc(C(F)(F)F)cc1)C(=O)C1CC1 , and I need its recorded normalized growth.
0.98

// returns reported normalized growth for input O=C(O)c1cc2cc(Cl)ccc2[nH]1
0.992

New cases:
Could you share which normalized growth value was measured for N#CC(C#N)=CNc1cc(C(F)(F)F)ccc1N1CCCCC1 ?
1

// lookup normalized growth for CSCCC(NC=O)C(=O)NC(CC(C)C)C(=O)NC(Cc1ccccc1)C(=O)O (configuration not stated)
0.999

May I ask what normalized growth has been recorded for COC(=O)c1csc2c(C(F)(F)F)cc(N3CCN(S(=O)(=O)c4ccc(C)cc4)CC3)nc12 ?
1

Dear colleague, I am looking for the recorded normalized growth of the following compound: CC(=O)CC(C)=Nc1ccc(C(F)(F)F)cc1
0.995

Fill blank: measured normalized growth of the compound COc1cc(O)c(C(=O)O)c(O)c1 is ____.
0.996

====

assay: chemical genetic growth profiling, strain panel (AID 1159580);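 also: tested at 20 µM; growth read once vehicle control cultures reached saturation at 30 °C; 1 = growth at the plate median or of vehicle wells; lower values mean less growth of the strain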; details: S. cerevisiae deletion strains, growth OD, locus YJL187C, strain SWE1 (second series)
Out of some 5,500 compounds screened, about 2,000 (36%) were called active. Roughly 18% stayed inconclusive and do not appear here. No stated cut-off is given here; in the data, active means normalized growth mostly below about 0.91 (no sharp cut-off); inconclusive means no clear call, values can overlap the other calls; inactive means mostly above about 0.92. The list shows a part of the results.
A correct response names exactly one class from active, inactive

# example entries with known answers
Hi, sorry to bother you, what did the test record for COc1cc(OC)c(-c2c(OC)cc(OC)cc2OC)c(OC)c1 ?
inactive

Answer briefly: the call reported for Cc1c(N(C)CS(=O)(=O)O)c(=O)n(-c2ccccc2)n1C in this assay.
inactive

What did the test return for CC1(C)S[C@@H]2[C@H](NC(=O)COc3ccccc3)C(=O)N2[C@H]1C(=O)O ?
inactive

For this compound, state the assay outcome: N#Cc1ccc2c(c1)N(CCCN1CCC(O)CC1)c1ccccc1S2
inactive

Record request — test call for COc1ccc2c(=O)c(CC(=O)O)coc2c1
inactive

Returns: the outcome recorded for COc1cc2ccc(=O)oc2c(OC)c1OC in this assay.
inactive

I'd appreciate the recorded outcome for Cn1c([N+](=O)[O-])cnc1COC(N)=O from this test.
inactive

Please share the test call associated with O=C(CCCN1CC=C(n2c(=O)[nH]c3ccccc32)CC1)c1ccc(F)cc1 .
inactive

New cases:
Field: outcome | Entry: CC(=O)OC1CCC2C3CCc4cc(O)ccc4C3CCC12C (stereo unspecified)
inactive

Check the results log: what was the call for CC1=C2[C@](C)(C=CC1=O)C[C@H](O)[C@H]1[C@H](C)C(=O)O[C@]21C ?
inactive

Lab log entry: CCOc1ccc(Cc2nccc3cc(OCC)c(OCC)cc23)cc1OCC — outcome as called in the assay?
inactive

Tell me the assay call for Cn1c(=O)[nH]c(=O)c2[nH]cnc21 please.
inactive

Tell me the recorded outcome of this test for COc1ccc(Cc2nccc3cc(OC)c(OC)cc23)cc1OC .
inactive

Just curious, what result did Cn1nnnc1SCC1=C(C(=O)O)N2C(=O)C(NC(=O)C(OC=O)c3ccccc3)C2SC1 (stereo unspecified) get here?
inactive

Could you kindly confirm the outcome this assay logged for COc1cc2ccc(=O)oc2c2ccoc12 ?
inactive

Look up the recorded call for C[C@]12CCC3c4ccc(O)cc4CCC3C1CC[C@@H]2OC(=O)CCC1CCCC1 (stereo partly specified) in this test.
inactive

Write down the call the test reported for this compound. Item: C=C(C)c1cc2cc(C(C)=O)c(O)cc2o1
inactive

GET /call?item= COc1cc(O)c(C(=O)O)c(O)c1 returns the recorded outcome of this test.
inactive

Check the results log: what was the call for Nc1ncnc2c1ncn2[C@@H]1O[C@H](CO)[C@@H](O)[C@@H]1O ?
inactive

Could you kindly confirm the outcome this assay logged for CCCC(=O)Nc1ncnc2c1ncn2C1O[C@@H]2COP(=O)(O)O[C@H]2[C@H]1OC(=O)CCC (stereo partly specified) ?
inactive

What call does the record list for CC(=O)O[C@@H]1CC2C(C)(C)C(=O)[C@@H]3O[C@@H]3[C@]2(C)C2CC[C@]3(C)C(=CC(=O)O[C@H]3c3ccoc3)[C@@]21C (stereo partly specified) ?
inactive

Given COc1cc2ccc(=O)oc2cc1O , state the outcome it received in this test.
inactive

Field: outcome | Entry: OCCN1CCN(CCCN2c3ccccc3Sc3ccc(Cl)cc32)CC1
inactive

Answer briefly: the call reported for COc1cc(OC)cc(OC)c1 in this assay.
inactive

What did this assay record as the result for C[C@]12C=CC(=O)C=C1CCC1C2CC[C@]2(C)C(=O)CCC12 (stereo partly specified) ?
inactive

# outcome recorded in this test, key = O=c1[nH]c2ccccc2n1C1CCN(CCCC(c2ccc(F)cc2)c2ccc(F)cc2)CC1
inactive

====

// reported normalized growth per item
assay: chemical genetic growth profiling, strain panel (AID 1159580);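 also: tested at 20 µM; growth read once vehicle control cultures reached saturation at 30 °C; 1 = growth at the plate median or of vehicle wells; lower values mean less growth of the strain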; details: S. cerevisiae deletion strains, growth OD, locus YLR357W, strain rsc2, hits give low values
Hit rate of the full screen: of about 5,500 compounds, about 2,000 (36%) were called active. Not shown: some 18% with an inconclusive outcome. The list shows a part of the results.
Output spec: single numeric token, no unit.

# example entries with known answers
Tell me the measured normalized growth of CC(=O)N[C@@H](CC(=O)O)C(=O)O , please.
1.01

GET /values?readout=normalized growth&item= CC1(C)C[C@@H]2C(=O)CC[C@H]3O[C@]3(C)CC[C@H]21
1

I have this compound here, O=C(/C=C/C(=O)Oc1ccccc1C(=O)O)Oc1ccccc1C(=O)O , and I need its recorded normalized growth.
0.987

Quick one: normalized growth of Cn1cnc([N+](=O)[O-])c1Sc1ncnc2nc[nH]c12 ?
1

More entries:
Using the record for CN(C)c1nc(N(C)C)nc(N(C)C)n1 , report its normalized growth.
0.978

Please report the recorded normalized growth for CCNc1nc(Cl)nc(NC(C)C)n1 .
0.991

Entry CC(=O)O[C@@H]1CC2C(C)(C)[C@H](O)C[C@H](O)[C@]2(C)C2CC[C@@]3(C)C(=CC(=O)O[C@H]3c3ccoc3)[C@@]21C (stereo partly drawn) : reported normalized growth = ?
0.984

# lookup: normalized growth of O=c1cc(-c2ccc(O)cc2)oc2cc(O[C@@H]3O[C@H](CO)[C@@H](O)[C@H](O)[C@H]3O[C@@H]3OC[C@](O)(CO)[C@H]3O)cc(O)c12
0.979
